Tested on: KASUMI-9
Assay: selective drug sensitivity score (sDSS, relative to normal bone marrow) (sDSS (score)); higher = more potent and effective on the cell line relative to normal bone marrow cells;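 also: ALL cell lines in 384-well plates, five doses spanning 10,000-fold, each plate scaled between vehicle and 100 µmol/L benzalkonium chloride controls, sDSS an adapted area-under-curve metric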
Settings: 72 h
Listed next: entries and their corresponding selective drug sensitivity score.

COMPOUND	selective drug sensitivity score
CCCC(CCC)C(=O)O [Valproic_acid] (top concentration 1000000 nM)	0
C[C@@H]1CN(Cc2ccc(F)cc2)[C@@H](C)CN1C(=O)c1cc2c(C(=O)C(=O)N(C)C)cn(C)c2cc1Cl [Talmapimod] (top concentration 10000 nM)	0
C[C@@H](C(=O)O)c1ccc(-c2ccccc2)c(F)c1 [Tarenflurbil] (top concentration 10000 nM)	6.84
CC(C)(C)c1cc(NC(=O)Nc2ccc(-c3cn4c(n3)sc3cc(OCCN5CCOCC5)ccc34)cc2)no1 [Quizartinib] (top concentration 1000 nM)	-0.02
CN1CCN(c2ccc3nc(-c4c(N)c5c(F)cccc5[nH]c4=O)[nH]c3c2)CC1 [Dovitinib] (top concentration 10000 nM)	0.56
C[C@H]1Oc2cc(cnc2N)-c2c(nn(C)c2C#N)CN(C)C(=O)c2ccc(F)cc21 (top concentration 1000 nM)	-0.72
Cc1cc(Nc2cc(N3CCN(C)CC3)nc(/C=C/c3ccccc3)n2)n[nH]1 [ENMD-2076] (top concentration 10000 nM)	9.24
CO[C@H]1C(=O)[C@]2(C)[C@@H](OC)C[C@H]3OC[C@@]3(OC(C)=O)[C@H]2[C@H](OC(=O)c2ccccc2)[C@]2(O)C[C@H](OC(=O)[C@H](O)[C@@H](NC(=O)OC(C)(C)C)c3ccccc3)C(C)=C1C2(C)C [Cabazitaxel] (top concentration 1000 nM)	18.7
CC(=O)OC[C@H]1O[C@@H]([S-])[C@H](OC(C)=O)[C@@H](OC(C)=O)[C@@H]1OC(C)=O.CCP(CC)CC.[Au+] [Auranofin] (top concentration 2500 nM)	3.94
C=CC(=O)Nc1cccc(Nc2nc(Nc3ccc(OCCOC)cc3)ncc2F)c1 [Spebrutinib] (top concentration 1000 nM)	4.84
CN(C)C/C=C/C(=O)Nc1cc2c(Nc3ccc(F)c(Cl)c3)ncnc2cc1O[C@H]1CCOC1 [Afatinib] (top concentration 1000 nM)	2.16
C[C@H](Nc1ncnc2[nH]cnc12)c1cc2ccc(F)cc2nc1-c1ccccn1 [AMG319] (top concentration 1000 nM)	1.18
CC(=O)c1cnc2ccc(-c3cc(Cl)c(O)c(Cl)c3)nc2c1N[C@H]1CC[C@H](CN(C)C)CC1 [OTS167] (top concentration 1000 nM)	3.58
CCCc1cc(C)[nH]c(=O)c1CNC(=O)c1cc(-c2ccnc(N3CCN(C)CC3)c2)cc2c1cnn2C(C)C [GSK343] (top concentration 1000 nM)	0

* * *

System: KASUMI-2
Assay: selective drug sensitivity score (sDSS, relative to normal bone marrow) (sDSS (score)); higher = more potent and effective on the cell line relative to normal bone marrow cells
Conditions: 72 h
Listed next: entries and their corresponding selective drug sensitivity score.
METRIC: selective drug sensitivity score

>>> print(df.to_string())
                                   molecule  measured_value
0  c1cc(CN2CCCNCCNCCCNCC2)ccc1CN1CCCNCCNCCCNCC1 [Plerixafor] (top concentration 10000 nM)               0
1  C[C@@H]1CN(Cc2ccc(F)cc2)[C@@H](C)CN1C(=O)c1cc2c(C(=O)C(=O)N(C)C)cn(C)c2cc1Cl [Talmapimod] (top concentration 10000 nM)               0
2  O=C(c1ccc(C(=O)N2CCC(N3CCCC3)CC2)c(Nc2ccccc2)c1)N1CCC(N2CCCC2)CC1 [UNC1215] (top concentration 10000 nM)               0

* * *

Listed next: entries and their corresponding selective drug sensitivity score.
Test system: COG-LL-355h
Assay: selective drug sensitivity score (sDSS, relative to normal bone marrow) (sDSS (score)); higher = more potent and effective on the cell line relative to normal bone marrow cells
Conditions: 72 h

MOLECULE	TESTED_ON	selective drug sensitivity score
Cc1cnc(Nc2ccc(OCCN3CCCC3)cc2)nc1Nc1cccc(S(=O)(=O)NC(C)(C)C)c1 [Fedratinib] (top concentration 10000 nM)	COG-LL-355h	3.84
CC(C)C[C@H](NC(=O)[C@H](CCc1ccccc1)NC(=O)CN1CCOCC1)C(=O)N[C@@H](Cc1ccccc1)C(=O)N[C@@H](CC(C)C)C(=O)[C@@]1(C)CO1 [Carfilzomib] (top concentration 1000 nM)	COG-LL-355h	5.06
C[C@@H]1CN(Cc2ccc(F)cc2)[C@@H](C)CN1C(=O)c1cc2c(C(=O)C(=O)N(C)C)cn(C)c2cc1Cl [Talmapimod] (top concentration 10000 nM)	COG-LL-355h	0
COc1ccc(-c2nc(N3CCOCC3)c3sc(CN(C)c4ncc(C(=O)NO)cn4)cc3n2)cn1 [Fimepinostat (CUDC-907)] (top concentration 10000 nM)	COG-LL-355h	7.28
Nc1nc(NC2CC2)cc(-c2cccc(Cl)c2Cl)n1 [TH588] (top concentration 25000 nM)	COG-LL-355h	2.42
CN(C)C(=N)NC(=N)N [Metformin] (top concentration 100000 nM)	COG-LL-355h	-0.02
CC(=O)[C@]1(O)Cc2c(O)c3c(c(O)c2[C@@H](O[C@H]2C[C@H](N)[C@H](O)[C@H](C)O2)C1)C(=O)c1ccccc1C3=O [Idarubicin] (top concentration 1000 nM)	COG-LL-355h	3.14
CCOC(=O)CCNc1cc(N2CCc3ccccc3CC2)nc(-c2ccccn2)n1 [GSK-J4] (top concentration 100000 nM)	COG-LL-355h	-4.78
CNC(=O)c1cc(Oc2ccc(NC(=O)Nc3ccc(Cl)c(C(F)(F)F)c3)c(F)c2)ccn1 [Regorafenib] (top concentration 10000 nM)	COG-LL-355h	6.74

* * *

Test system: 380
Assay: selective drug sensitivity score (sDSS, relative to normal bone marrow) (sDSS (score)); higher = more potent and effective on the cell line relative to normal bone marrow cells
Conditions: 72 h
Please use 1 whenever selective drug sensitivity score is not below 10, and 0 whenever it is.

COMPOUND	ASSIGNED_CLASS
C[C@]12C=CC(=O)C=C1CC[C@@H]1[C@@H]2[C@@H](O)C[C@@]2(C)[C@H]1CC[C@]2(O)C(=O)CO [Prednisolone] (top concentration 10000 nM)	1
Cc1ccc(NC(=O)c2ccc(CN3CCN(C)CC3)cc2)cc1Nc1nccc(-c2cccnc2)n1 [Imatinib] (top concentration 10000 nM)	0
CC(=O)OC[C@H]1O[C@@H]([S-])[C@H](OC(C)=O)[C@@H](OC(C)=O)[C@@H]1OC(C)=O.CCP(CC)CC.[Au+] [Auranofin] (top concentration 2500 nM)	1
COc1cc(OC2CCN(C)CC2)ccc1Nc1ncc2c(n1)n(C1CCCC1)c(=O)n2C [AZ3146] (top concentration 10000 nM)	0
CNC(=O)c1ccc(N2C(=S)N(c3ccc(C#N)c(C(F)(F)F)c3)C(=O)C2(C)C)cc1F [Enzalutamide] (top concentration 10000 nM)	0
O=C(/C=C\n1cnc(-c2cc(C(F)(F)F)cc(C(F)(F)F)c2)n1)NNc1ccccn1 [Verdinexor] (top concentration 1000 nM)	1
O=C1Cc2cc(C(=O)NC3C[C@H]4CC[C@@H](C3)N4S(=O)(=O)CC3CCN(CCCC(F)(F)F)CC3)c(Cl)cc2N1 (some centres not stated) (top concentration 10000 nM)	0

* * *

Test system: SUP-B15
Assay: selective drug sensitivity score (sDSS, relative to normal bone marrow) (sDSS (score)); higher = more potent and effective on the cell line relative to normal bone marrow cells
Details: 72 h

COMPOUND	selective drug sensitivity score
Cc1ccc(NC(=O)c2ccc(CN3CCN(C)CC3)cc2)cc1Nc1nc(-c2cccnc2)cs1 [Masitinib] (top concentration 10000 nM)	7.52
Cc1cccc(-c2[nH]c(CNc3ccccc3F)nc2-c2ccc3ncnn3c2)n1 [Vactosertib (TEW-7197)] (top concentration 2500 nM)	9
CCS(=O)(=O)c1cccc(-c2cc(C(=O)NC3CCN(C)CC3)c(C)c3[nH]c4ncc(C)cc4c23)c1 [TAK-901] (top concentration 1000 nM)	11
Cn1ncnc1[C@H]1c2n[nH]c(=O)c3cc(F)cc(c23)N[C@@H]1c1ccc(F)cc1 [Talazoparib] (top concentration 1000 nM)	20.1
CCCC(CCC)C(=O)O [Valproic_acid] (top concentration 1000000 nM)	0
CC[C@]1(O)C[C@H]2CN(CCc3c([nH]c4ccccc34)[C@@](C(=O)OC)(c3cc4c(cc3OC)N(C=O)[C@H]3[C@@](O)(C(=O)OC)[C@H](OC(C)=O)[C@]5(CC)C=CCN6CC[C@]43[C@@H]65)C2)C1 [Vincristine] (top concentration 1000 nM)	18.5
CC[C@@](C)(Nc1ccnc(-c2c[nH]c3ncccc23)n1)C(=O)NCC(F)(F)F [Decernotinib] (top concentration 10000 nM)	-3.94
COc1cc2ncnc(Oc3cccc(NC(=O)Nc4cc(C(C)(C)C(F)(F)F)on4)c3)c2cc1OC (top concentration 10000 nM)	28.4
